Reported ELISA signal by item:
# targetUnderTest: His-tagged human CD38 (ACRO Biosystems CD8-H5224) (human) (UniProt P28907)
# measurementProtocol: ELISA, 1 ug/ml scFv-Fc, coated His-tagged CD38
Lab note: jot down the number only; don't add units.

// below: answered binders
binder: 40769p2.1.E5 scFv-Fc (scFv, part only; not given: Linker, domain order, Fc, V domains shown, not shown: another chain or arm of the molecule; a dimerising Fc or GST; small tags and cut ends) VH: EVQLLESGGGLVQPGGSLRLSCTASAHIFKYNWMSWVRQAPGKGLEWVSSINSDGTITYYTDSVKGRFTISRDNSKNTLYLQMNSLRAEDTAVYYCAKDNWNDYAIDVWGQGTTVTVSS VL: QSVLTQPPSASGTPGQRVTISCSGSRSDIRNNYVSWYQQLPGTAPKLLIYSNGQRPSGVPDRFSGSKSGTSASLAISGLQSEDEADYYCAIWDDSLNAWVFGGGTKLTVL
observedValue: 1.96
--
binder: 40769p2.1.G4 scFv-Fc (scFv, part only; not given: Linker, domain order, Fc, V domains shown, not shown: another chain or arm of the molecule; a dimerising Fc or GST; small tags and cut ends) VH: EVQLLESGGGLVQPGGSLRLSCAASGFTFTSHDMNWVRQAPGKGLEWVSTITTGGNTYYADSVKGRFTISRDNSKNTLYLQMTSLRAEDTAVYYCTKHYSMDVWGQGTTVTVSS VL: QSVLTQPPSASGTPGQRVTISCSGSTSNVVFNAVYWYQQLPGTAPKLLFYGKSQRPSGVPDRFSGSKSGTSASLAISGLQSEDEADYYCAAWDDTLNGWVFGGGTKLTVL
observedValue: 1.81
--
binder: 40769p2.1.E8 scFv-Fc (scFv, part only; not given: Linker, domain order, Fc, V domains shown, not shown: another chain or arm of the molecule; a dimerising Fc or GST; small tags and cut ends) VH: EVQLLESGGGLVQPGGSLRLSCTGFGFTFTDARMSWVRQAPGKGLEWVADISSYGDNTYYADSVKGRFTISRDNSANTLYVQMNSLRAEDTAVYYCAKRMEREVMTIKLDYHAMDVWGQGTTVTVSS VL: QSVLTQTPSVSGTPGQRVTISCSGVFNIRNYVSWYQQLPGTAPKLLIFKDDQRPSGVPDRFSGSRSGTSASLAISGLQSEDEADYYCAAWDIFLNVWVFGGGTKLTVL
observedValue: 1.79
--
binder: 40769p2.2.H4 scFv-Fc (scFv, part only; not given: Linker, domain order, Fc, V domains shown, not shown: another chain or arm of the molecule; a dimerising Fc or GST; small tags and cut ends) VH: EVQLLESGGGLVQPGGSLRLSCAASGFDFSSYWMNWVRQAPGKGLEWVSTISSGGSIIYYADSVKGQFTISRDNSKNTLYLQMNSLRAEDTAVYYCAKDNWNDYYGMDVWGQGTTVTVSS VL: QSVPTQPPSASGTPGQRVTISCSGSSSNIRDNYVYWYQQVPGTAPKLLIYKDDQRPSGVPDRFSGSKSGTSASLAISGLQSEDEADYYCATWDGSLNARVFGGGTKLTVL
observedValue: 1.67
--
binder: 40769p2.1.C1 scFv-Fc (scFv, part only; not given: Linker, domain order, Fc, V domains shown, not shown: another chain or arm of the molecule; a dimerising Fc or GST; small tags and cut ends) VH: EVQLLESGGGLVQPGGSLRLSCAASGFSFSDYWMNWVRQAPGKGLEWVSTISSGGNMIYYADSVKGRFTISRDNSKNTLYLRMNSLRAEDTAVYYCAKDNWNDYYGMDVWGQGTTVTVSS VL: QSVLTQPPSASGTPGQRVTISCSGSSSNIRDNYVYWYQQVPGTAPKLLIYKDDQRPSGVPDRFSGSKSGSSASLAISGLQSEDEADYYCATWDGSLNARVFGGGTKLTVL
observedValue: 2.42

Ask: # input binder: 40769p2.2.G3 scFv-Fc (scFv, part only; not given: Linker, domain order, Fc, V domains shown, not shown: another chain or arm of the molecule; a dimerising Fc or GST; small tags and cut ends) VH: EVQLLESGGGLVQPGGSLRLSCTASGITFSRFNMFWVRQAPGKGLEFVASIRDDGSWTYYADSVKGQFTISRDNSKNTLYLQMNSLRAEDTAVYYCAKDYSSKDFIYHYVMDVWGQGTTVTVSS VL: QSVLTQPPSASGTPGQRVTISCSGRNSNIGNNVVNWYQQLPGTAPKLLIYRNQERPSGVPDRFSGSKSGTSASLAISGLQSEDEADYYCASWDDSLNAWVFGRGTKLTVL ; wanted: its ELISA signal
Reply: 1.7

Ask: # input binder: 40769p2.1.H12 scFv-Fc (scFv, part only; not given: Linker, domain order, Fc, V domains shown, not shown: another chain or arm of the molecule; a dimerising Fc or GST; small tags and cut ends) VH: EVQLLESGGGLIQPGGSLRLSCTASGFDFSSYGMHWVRQAPGKGLEWVGIISDSGGTTYYADSVKGRFTISRDNSKNTLYLQMNSLRAEDTALYYCASYIMDVWGQGITVTVSS VL: QSVLTQPPSASGTPGQRVTISCSGSNSNVGVNSVYWYQQLPGTAPKLLIYGSGRRPSGVPDRFSVSKSGTSASLAISGLQSEDEADYYCAAWDDGLNAWVFGGGTKLTVL ; wanted: its ELISA signal
Reply: 2.01

Ask: If you can, please state the reported ELISA signal value of 40769p2.1.E1 scFv-Fc (scFv, part only; not given: Linker, domain order, Fc, V domains shown, not shown: another chain or arm of the molecule; a dimerising Fc or GST; small tags and cut ends) VH: EVQLLESGGGLIQPGGSLRLSCTASGFDFSSYGMHWVRQAPGKGLEWVAIISDSGGTTYYGDSVKGRFTISRDNSKSTLYLQMNSLRAEDTALYYCASYIMDVWGQGTTVTVSS VL: QSVLTQPPSASGTPEQRVTISCSGSNSNVGDNAVYWYQQLPGTAPKLLFYGTNRRPSGVPDRFSGSKSGTSASLAISGLQSEDEADYYCAAWDDSLNAWVFGGGTKLTVL .
Reply: 2.04
